apparent Kd (screen) for assorted binders
Target: T1, TNFR1 (Homo sapiens, UniProt P19438)
T1 chain: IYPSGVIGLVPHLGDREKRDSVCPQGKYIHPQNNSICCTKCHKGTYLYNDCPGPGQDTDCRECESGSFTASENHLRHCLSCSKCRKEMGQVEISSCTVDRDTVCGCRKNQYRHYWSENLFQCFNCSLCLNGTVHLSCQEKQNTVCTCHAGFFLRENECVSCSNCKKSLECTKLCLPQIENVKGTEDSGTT
Experiment description: yeast display SC50
Experimental endpoint: apparent Kd (screen) (nM)

1) L99K (designed binder) SMEEEVEKAAKEYEKKKKEAIEKHLEKLKAKDKEAAERFLKELEEAAKEYAKDEAKTMSEEEAKRRAKKYKEKVLLSELSEEEQKEIKEAEEKLVRTIKKYVEEAAK = 7.78
2) E34D (designed binder) SMEEEVEKAAKEYEKKKKEAIEKHLEKLKAKDKDAAERFLKELEEAAKEYAKDEAKTMSEEEAKRRAKKYKEKVLLSELSEEEQKEIKEAEEKLVRTILKYVEEAAK = 0.718
